The reported measurements were obtained from PubChem BioAssay (NCI).

# Assay Overview: NCI Yeast Anticancer Drug Screen. Data for the mlh1 strain (AID 171);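 note: 0% = growth of vehicle-treated control cultures of the same strain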
# Experimental Parameters: S. cerevisiae mlh1 strain growth inhibition; at 33.0 µM; hits give high values
This is part of a sample that, as a whole, favours compounds with a hit. Of some 79,000 tested, about 15% had one in any assay. Activity calls are given as the source filed them. Cut-off read from the data, not from the text of the source: active = growth inhibition above about 70%; inactive = the rest.
In this section, each of the compounds is paired with its reported growth inhibition.

| Substance Smiles | Assay Result |
| --- | --- |
| S=C1N(c2ccc(Cl)cc2)C2=C(N=Nc3ccccc3)C(=Nc3ccccc3S2)N1c1ccccn1 | 94% (active) |
| O=C(/N=N/C(=O)Oc1ccccc1)Oc1ccccc1 | -44% (inactive) |
| CCOc1ccc2nc3ccccc3c(N)c2c1 | 90% (active) |
| O=S(=O)(c1ccccc1)N1CN2CN(C1)CN(S(=O)(=O)c1ccccc1)C2 | -18% (inactive) |
| CN(C)N=Nc1ccc(N(C)C)cc1 | 3% (inactive) |
| COc1c2c(c3c(c1CCC(=O)O)OC(C)(C)C=C3)OC(C)(C)C=C2 | 39% (inactive) |

Asked: Consider the compound NC(N)=NS(=O)(=O)c1ccc(Nc2c3ccccc3nc3c(C(=O)NC(CO)(CO)CO)cccc23)cc1 and give its measured growth inhibition.
Given back: 0% (inactive)

Asked: Consider the compound CNC(=O)OCc1c2ccncc2c(C)c2c1[nH]c1ccccc12 and give its measured growth inhibition.
Given back: 38% (inactive)

Asked: Consider the compound C[n+]1c(/C=C/c2ccc(/C=N/NC(=O)c3ccc(C(=O)N/N=C/c4ccc(/C=C/c5cn6ccccc6[n+]5C)cc4)cc3)cc2)cn2ccccc21 and give its measured growth inhibition.
Given back: 97% (active)

Asked: Consider the compound O=c1c2ccccc2nc(-c2cccc([N+](=O)[O-])c2)n1O and give its measured growth inhibition.
Given back: 78% (active)

---

# Assay Overview: NCI Yeast Anticancer Drug Screen. Data for the wt1 strain (AID 149);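 note: 0% = growth of vehicle-treated wt1 cultures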
# Experimental Parameters: S. cerevisiae wt1 strain (SPY 50644) growth inhibition; at 1.2 µM; hits give high values
Compounds without any hit were thinned out: in the full panel of roughly 79,000, 15% have a hit.
Recorded Metric: growth inhibition (%)
Record the value in %, omitting the unit from your answer.

Reference set (2 entries):
| Substance Smiles | Recorded Metric | Assay Result |
| --- | --- | --- |
| O=C(Nc1ccc(Cl)cc1)c1cc2cc(N=Nc3ccccc3Cl)ccc2oc1=O | growth inhibition | 3 |
| Cc1cc(O)c(C(C)C)cc1SC#N | growth inhibition | -15 |

Asked: Consider the compound O=[N+]([O-])c1ccc(S(=O)(=O)Cc2ccccc2)c([N+](=O)[O-])c1 and give its measured growth inhibition.
Given back: 6

Asked: Consider the compound CC(C)(C)c1ccc2c(c1)C(=O)c1ccccc1C2=O and give its measured growth inhibition.
Given back: 0

Asked: Consider the compound O=C1c2ccccc2-c2ccc(N=Cc3ccccc3)cc21 and give its measured growth inhibition.
Given back: 1

Asked: Consider the compound Cc1cc(C)c2[s+]snc2c1 and give its measured growth inhibition.
Given back: -36

---

# Assay Overview: NCI Yeast Anticancer Drug Screen. Data for the rad50 strain (AID 155);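 note: 0% = growth of vehicle-only cultures of the same strain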
# Experimental Parameters: S. cerevisiae rad50 strain growth inhibition; at 11.0 µM; hits give high values
# Procedure: Growth inhibition of yeast strains with defined genetic alterations is measured as a screen for potential anti-cancer activity. Selected strains with alterations in DNA damage repair or cell cycle control were exposed to compounds and growth inhibition was measured relative to vehicle treated controls. The strain used in this assay is rad50
The panel holds about 79,000 compounds, 15% with a hit somewhere; the sample as a whole holds those more often.
Label F if growth inhibition falls below 7%; label T in every other case.

| Substance Smiles | Group Label |
| --- | --- |
| Cc1ccc(Nc2n[nH]c(=S)s2)c(C)c1 | F |
| Cc1ccc([N+](=O)[O-])c2c(NCCC[N+](C)(C)[O-])c3ccccc3nc12 | F |

Asked: # bool: growth inhibition of COc1cc(NCCCCNCC(C)(C)C)c2ncccc2c1 >= 7%
Given back: F

Asked: # bool: growth inhibition of Nc1cc2c(cc1N)-c1ccccc1C2=O >= 7%
Given back: T

Asked: # bool: growth inhibition of Cc1c2c(nc3ccccc13)C(=O)c1cccnc1C2=O >= 7%
Given back: T
